Where these numbers come from: ChEMBL document CHEMBL5634170

Assignment: determine reported selectivity ratio for the given molecules.
experiment: Selectivity index, ratio of IC50 for antiproliferative activity against human HaCaT cells assessed as inhibition of cell growth to IC50 for antiproliferative activity against human MCF7 cells assessed as inhibition of cell growth; assay type: toxicity, cell-based; conditions: HaCaT cells versus MCF7 cells, read-out: Ratio IC50
Numbers only.

// below: answered molecules
O=C1NCCN1c1ccc(S(=O)(=O)Oc2ccnc(Cl)c2)cc1	1
O=C1NCCN1c1ccc(S(=O)(=O)Oc2ccnc(Br)c2)cc1	0.8

I would be grateful if you could share the reported selectivity ratio for O=C1NCCN1c1ccc(S(=O)(=O)Oc2cc(Cl)nc(Cl)c2)cc1 . 0.3
